compounds and their reported MRT inf
Experiment: Pharmacokinetics in ICR mice after intravenous and intragastric administration
Type: in vivo
Details: male, ICR, mouse, plasma, po, 5 mg/kg, ICR mice, PO 5 mg/kg, individual animal; read-out: MRT(0-∞)
Description: Experimental Example 3 Determination of the Pharmacokinetics of the Mdm2 Inhibitors of the Present Invention in Mice […] The collected plasma was stored at −80° C. before analysis. The plasma sample was analyzed by LC-MS/MS, and the sample was pretreated by protein precipitation method. […] The lowest quantification limit was 1 ng/mL. […]

[
  {
    "Sample smiles": "CCOc1cc(OC)c(-c2nc3c(n2C(C)C)[C@@]2(C(=O)Nc4cc(Cl)ccc42)N(c2cc(Cl)cnc2C)C3=O)cn1",
    "MRT inf / h": 2.15
  },
  {
    "Sample smiles": "COc1cc(C(C)C)ccc1-c1nc2c(n1C(C)C)[C@@]1(C(=O)Nc3cc(Cl)ccc31)N(c1cc(Cl)ccc1C)C2=O",
    "MRT inf / h": 4.22
  },
  {
    "Sample smiles": "COc1ncc(-c2nc3c(n2C(C)C)[C@@]2(C(=O)Nc4cc(Cl)ccc42)N(c2cc(F)cc(Cl)c2)C3=O)c(OC)n1",
    "MRT inf / h": 3.21
  },
  {
    "Sample smiles": "CCOc1cc(OC)c(-c2nc3c(n2C(C)C)[C@@]2(C(=O)Nc4cc(Cl)ccc42)N(c2cc(Cl)ccc2F)C3=O)cn1",
    "MRT inf / h": 5.38
  },
  {
    "Sample smiles": "COc1ccc(-c2nc3c(n2C(C)C)[C@@]2(C(=O)Nc4cc(Cl)ccc42)N(c2cc(Cl)cnc2C)C3=O)c(OC)c1",
    "MRT inf / h": 2.85
  },
  {
    "Sample smiles": "COc1cc(OC)c(-c2nc3c(n2C(C)C)[C@@]2(C(=O)Nc4cc(Cl)ccc42)N(c2cc(Cl)cnc2C)C3=O)cn1",
    "MRT inf / h": 1.95
  }
]
